# experimental-details: In vitro Caco-2 cytotoxicity (MTT, ISO 10993-5)
# Format: cell-based, human
# experimental-conditions: human, Caco-2 cells; Caco-2, 10 µg/mL, 4 h, MTT; read-out: cell viability
# Experimental: In vitro cytotoxicity assays were carried out following the protocol outlined in the ISO 10993-5 guideline (ISO, 2022). […] Six replicates of each concentration for RW3 were assessed. […] Next, formazan crystals were solubilized with 70 µL of isopropyl alcohol acidified with hydrochloric acid and quantified spectrophotometrically at 570 and 690 nm (Spectra Fluor plate reader, Tecan, Grödig, Austria). […]
measurement-name: viability at 4 h, 10 µg/mL (%)
Please reply with the bare figure in % and do not write the unit itself.

So, CCOC(=O)Cc1csc(N/N=C(\C)C(=O)O)n1 ? Its viability at 4 h, 10 µg/mL was 100
